System: K-562 leukemia
TEST PROTOCOL: NCI-60 one-dose screen, 48 h
ASSAY SETUP: 10 µM unless noted
This is part of a sample that, as a whole, favours compounds with a hit. Of some 83,000 tested, about 20% had one in any assay. Activity calls are given as the source filed them. Rule for the calls: active = growth percent below 10; inactive = the rest.
Classes to choose from: 1 (active), 0 (inactive)

Data request: Recorded call for O=C1N/C(=N/O)S/C1=C/c1cn(-c2ccccc2)nc1-c1ccccc1 ?
Data returned: 0

###

In this section we review reported growth values for a set of compounds.
Test system: SF-268 CNS
TEST PROTOCOL: NCI-60 one-dose screen, 48 h (100 = growth as untreated, 0 = no growth, -100 = all killed)
ASSAY SETUP: 10 µM unless noted
This is part of a sample that, as a whole, favours compounds with a hit. Of some 83,000 tested, about 20% had one in any assay.
Field: numeric (%). Do not append units.

For orientation, consider the following solved cases.
{"COMPOUND": "CC(C)N(CCOC(=O)Nc1ccccc1Cl)C(C)C", "growth [%]": 101}
{"COMPOUND": "COc1cc(-c2cccc([N+](=O)[O-])c2)c(-c2nc(-c3ccccc3)c(-c3ccccc3)n2C2CC2)cc1OC", "growth [%]": 77}
{"COMPOUND": "Cc1ccccc1NC(=O)CN(C)C", "growth [%]": 103}
{"COMPOUND": "CN1C(=O)CCC(N2C(=O)c3cccc(NCCOCCOCCNC(=O)c4cc5c(o4)C(=O)c4ccccc4C5=O)c3C2=O)C1=O (stereo not given)", "growth [%]": -0.714}

Now for another entry.
Value of measured growth for the entry COc1cccc(-c2nc3sccn3c2-c2ccnc(NCCNS(=O)(=O)c3c(Cl)cccc3Cl)c2)c1 : 26.1
